- Tested on: Trypanosoma cruzi amastigotes cultured in 3T3 fibroblast cells
- ASSAY_OVERVIEW: Assay for proliferation of kinetoplastid parasite Trypanosoma cruzi (beta-galactosidase/CPRG readout)
- Type: cell-based
- COND: NIH3T3, 144 h, Tulahuen strain in 3T3 cells, 6 day incubation, read-out: T cruzi EC50
PARAMETER: EC50 (µM)
Numbers only, in µM.

Examples with their reported EC50 follow.
compound="O=C(Nc1ccc(Cl)c(-c2nc3ncc(NC(=O)C4CC4(F)F)cc3[nH]2)c1)c1ccco1 (stereo not shown)" test_result=3.9
compound=CC(C)CC(=O)Nc1cnc2nc(-c3cc(NC(=O)c4ccco4)ccc3Cl)[nH]c2c1 test_result=3.3
compound=NCC(=O)Nc1cnc2nc(-c3cc(NC(=O)c4ccco4)ccc3Cl)[nH]c2c1 test_result=19.1
compound=Nc1cnc2nc(-c3cccc(NC(=O)c4ccc(F)o4)c3)[nH]c2c1 test_result=1.46
compound=O=C(Nc1ccc(Cl)c(-c2nc3ncc(NC(=O)N4CCCC4)cc3[nH]2)c1)c1ccco1 test_result=11
compound=N#CC1(C(=O)Nc2cnc3nc(-c4cc(NC(=O)c5ccco5)ccc4Cl)[nH]c3c2)CC1 test_result=0.82
compound=CC(C)(N)C(=O)Nc1cnc2nc(-c3cc(NC(=O)c4ccco4)ccc3Cl)[nH]c2c1 test_result=14.8
compound=COCC1(C(=O)Nc2cnc3nc(-c4cc(NC(=O)c5ccco5)ccc4Cl)[nH]c3c2)CC1 test_result=1.32
compound=CC1(OC(=O)Nc2cnc3nc(-c4cc(NC(=O)c5ccco5)ccc4Cl)[nH]c3c2)CC1 test_result=0.44
compound=N#CC1(C(=O)Nc2cnc3nc(-c4cc(NC(=O)c5ccc(F)o5)ccc4Cl)[nH]c3c2)CC1 test_result=0.72

Please supply EC50 for each of the following items, keeping them in order.
1. COc1ccc(C(=O)Nc2ccc(Cl)c(-c3nc4ncc(NC(=O)OC(C)C)cc4[nH]3)c2)o1
2. O=C(Nc1cnc2nc(-c3cc(NC(=O)c4ccco4)ccc3Cl)[nH]c2c1)OCCF
3. O=C(Nc1ccc(Cl)c(-c2nc3ncc(NC(=O)C4CCC4)cc3[nH]2)c1)c1ccco1
4. CC(C)(C)OC(=O)NCCOC(=O)Nc1cnc2nc(-c3cc(NC(=O)c4ccco4)ccc3Cl)[nH]c2c1
5. Cc1nc(C)c(C(=O)Nc2cnc3nc(-c4cc(NC(=O)c5ccco5)ccc4Cl)[nH]c3c2)s1
6. CC(C)OC(=O)Nc1cnc2nc(-c3cccc(NC(=O)c4ccc(F)o4)c3)[nH]c2c1
7. CC(C)OC(=O)Nc1cnc2nc(-c3cc(NC(=O)c4ccc(F)o4)ccc3Cl)[nH]c2c1

Return:
1: 6.7; 2: 3.2; 3: 1.25; 4: 4; 5: 1.86; 6: 1.44; 7: 0.4

Report EC50 for each item below.
1. CC(C)OC(=O)Nc1cnc2nc(-c3cc(NC(=O)N4CCCC4)ccc3Cl)[nH]c2c1
2. CC(C)(COC(=O)Nc1cnc2nc(-c3cc(NC(=O)c4ccco4)ccc3Cl)[nH]c2c1)NC(=O)OC(C)(C)C

Return:
1: 1.39; 2: 1.85
